Assay: pharmacokinetics in mice, i.p. dosing, plasma and brain by LC/MS-MS
Details: male, C57Bl/6, mouse, plasma, ip, 10 mg/kg
measureName: Cmax (ng/mL)

[[record]]
molecule = "COc1ccc(OCC2c3cccn3CC(=O)N2Cc2cccc(F)c2)cc1 (stereo not shown)"
observedvalue = 695


###

Test: pharmacokinetics in mice, i.p. dosing, plasma and brain by LC/MS-MS
Conditions: male, C57Bl/6, mouse, brain and plasma, ip, 10 mg/kg
measureName: Tmax (min)

[[record]]
molecule = "COc1ccc(OCC2c3cccn3CC(=O)N2Cc2cccc(F)c2)cc1 (stereo not shown)"
endpointunit = "min"
observedvalue = 15


###

Target: GluN1/GluN2C (Rattus norvegicus, UniProt P35439+Q00961)
Sequence (Q00961 20-1237, other chains not shown): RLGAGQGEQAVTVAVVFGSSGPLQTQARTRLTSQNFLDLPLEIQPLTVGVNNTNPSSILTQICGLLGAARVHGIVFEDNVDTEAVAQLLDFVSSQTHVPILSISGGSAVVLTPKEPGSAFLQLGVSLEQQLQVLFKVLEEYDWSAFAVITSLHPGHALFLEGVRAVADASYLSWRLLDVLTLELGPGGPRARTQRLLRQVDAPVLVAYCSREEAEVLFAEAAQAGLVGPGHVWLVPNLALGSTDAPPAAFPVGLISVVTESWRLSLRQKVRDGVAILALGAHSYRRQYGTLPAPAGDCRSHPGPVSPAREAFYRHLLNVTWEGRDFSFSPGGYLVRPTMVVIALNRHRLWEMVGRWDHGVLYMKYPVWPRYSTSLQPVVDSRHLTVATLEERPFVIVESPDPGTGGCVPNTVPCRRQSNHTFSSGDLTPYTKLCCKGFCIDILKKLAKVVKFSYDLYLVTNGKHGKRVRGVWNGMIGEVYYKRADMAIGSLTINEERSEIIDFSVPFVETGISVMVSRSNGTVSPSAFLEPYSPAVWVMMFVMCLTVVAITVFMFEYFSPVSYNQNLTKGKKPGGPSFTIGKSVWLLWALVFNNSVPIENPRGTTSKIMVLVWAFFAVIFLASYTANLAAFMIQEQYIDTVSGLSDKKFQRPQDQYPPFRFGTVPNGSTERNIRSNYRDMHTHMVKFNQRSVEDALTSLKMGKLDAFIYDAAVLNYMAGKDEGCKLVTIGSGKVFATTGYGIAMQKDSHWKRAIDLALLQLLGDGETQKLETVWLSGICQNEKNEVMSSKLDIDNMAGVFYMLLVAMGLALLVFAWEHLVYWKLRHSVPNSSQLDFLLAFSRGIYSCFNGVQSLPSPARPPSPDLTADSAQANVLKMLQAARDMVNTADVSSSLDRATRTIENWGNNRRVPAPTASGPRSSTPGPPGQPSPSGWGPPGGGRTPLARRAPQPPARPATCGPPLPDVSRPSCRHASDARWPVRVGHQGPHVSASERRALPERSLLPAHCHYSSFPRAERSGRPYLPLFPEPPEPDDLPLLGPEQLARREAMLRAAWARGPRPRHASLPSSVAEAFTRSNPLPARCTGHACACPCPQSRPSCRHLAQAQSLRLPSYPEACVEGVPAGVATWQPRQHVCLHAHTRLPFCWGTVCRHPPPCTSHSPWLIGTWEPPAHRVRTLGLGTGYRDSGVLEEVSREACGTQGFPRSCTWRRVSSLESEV
Test: cell-based
pEC50: −log10 of the molar value.
measureName: pEC50

[[record]]
molecule = "COc1ccc(OCC2c3cc(OC)sc3CCN2C(=O)c2cccc(Cl)c2)cc1 (stereo not shown) [25d]"
systemundertest = "GluN1/GluN2C (Rattus norvegicus, UniProt P35439+Q00961)"
measurename = "pEC50"
observedvalue = 5.30

